molecules and their reported Molar Relative Potency / LFuc as 1.0
# assay-system: fucolectin-related protein (FRP) (Streptococcus pneumoniae, UniProt A0A0H2US34)
# Sequence (A0A0H2US34 1-1038): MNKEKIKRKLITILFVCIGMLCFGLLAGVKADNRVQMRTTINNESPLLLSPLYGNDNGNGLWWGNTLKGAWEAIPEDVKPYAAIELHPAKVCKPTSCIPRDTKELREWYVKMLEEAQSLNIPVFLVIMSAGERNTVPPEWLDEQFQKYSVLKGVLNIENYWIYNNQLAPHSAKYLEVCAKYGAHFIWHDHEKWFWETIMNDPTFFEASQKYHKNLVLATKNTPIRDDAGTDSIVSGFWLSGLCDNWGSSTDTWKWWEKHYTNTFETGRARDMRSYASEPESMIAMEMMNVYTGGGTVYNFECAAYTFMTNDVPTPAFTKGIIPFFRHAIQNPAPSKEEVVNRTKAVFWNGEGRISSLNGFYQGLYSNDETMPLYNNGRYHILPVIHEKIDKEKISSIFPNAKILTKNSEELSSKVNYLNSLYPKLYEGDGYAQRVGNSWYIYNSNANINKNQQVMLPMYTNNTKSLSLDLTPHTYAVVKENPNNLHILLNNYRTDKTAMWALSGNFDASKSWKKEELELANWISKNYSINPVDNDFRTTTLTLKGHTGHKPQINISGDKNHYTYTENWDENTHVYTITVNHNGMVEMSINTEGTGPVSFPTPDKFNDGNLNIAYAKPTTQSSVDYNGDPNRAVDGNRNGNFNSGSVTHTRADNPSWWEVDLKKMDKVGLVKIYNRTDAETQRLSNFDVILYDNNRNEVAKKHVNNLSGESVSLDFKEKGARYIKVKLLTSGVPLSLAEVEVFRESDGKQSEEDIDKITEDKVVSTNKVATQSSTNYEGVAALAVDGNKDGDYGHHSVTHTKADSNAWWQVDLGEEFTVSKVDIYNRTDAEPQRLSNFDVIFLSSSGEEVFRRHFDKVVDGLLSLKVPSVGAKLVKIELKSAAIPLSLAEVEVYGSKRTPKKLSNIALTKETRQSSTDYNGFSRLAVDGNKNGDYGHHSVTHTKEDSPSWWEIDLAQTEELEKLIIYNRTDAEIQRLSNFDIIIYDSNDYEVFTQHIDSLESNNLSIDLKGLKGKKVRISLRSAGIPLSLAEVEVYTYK
# assay-comment: enzyme-linked lectinosorbent inhibition assay
# Type: binding
# measurement-setup: TBS-T pH 7.35, 20 °C; no metal needed; ratio from amounts giving 50% inhibition

>>> result("C[C@@H]1O[C@@H](O[C@H]2[C@H](O[C@H]3[C@H](O[C@@H]4O[C@@H](C)[C@@H](O)[C@@H](O)[C@@H]4O)[C@@H](O)C(O)O[C@@H]3CO)O[C@H](CO)[C@H](O)[C@@H]2O)[C@@H](O)[C@H](O)[C@@H]1O (stereo partly drawn) [compound 4, LFucα1→2Galβ1→4[LFucα1→3]Glc]")
"5.7 relative to LFuc = 1.0"
>>> result("OC1OC[C@@H](O)[C@@H](O)[C@@H]1O (stereo partly drawn)")
"0.09 relative to LFuc = 1.0"
>>> result("CC(=O)N[C@H]1[C@H](O[C@H]2[C@@H](O)[C@@H](CO)O[C@@H](O[C@H]3[C@H](O)[C@@H](O)C(O)O[C@@H]3CO)[C@@H]2O)O[C@H](CO)[C@@H](O[C@@H]2O[C@@H](C)[C@@H](O)[C@@H](O)[C@@H]2O)[C@@H]1O[C@@H]1O[C@H](CO)[C@H](O)[C@H](O)[C@H]1O[C@@H]1O[C@@H](C)[C@@H](O)[C@@H](O)[C@@H]1O (stereo partly drawn)")
"1.8 relative to LFuc = 1.0"
>>> result("C[C@@H]1O[C@H](Oc2ccc([N+](=O)[O-])cc2)[C@@H](O)[C@H](O)[C@@H]1O")
"69.1 relative to LFuc = 1.0"
>>> result("C[C@@H]1O[C@@H](O[C@H]2C(O)O[C@H](CO)[C@H](O)[C@@H]2O)[C@@H](O)[C@H](O)[C@@H]1O (stereo partly drawn)")
"0.7 relative to LFuc = 1.0"

Moving on to another molecule below.
Let me check: OC[C@@H]1OC(O)[C@@H](O)[C@H](O)[C@@H]1O (stereo partly drawn) , system fucolectin-related protein (FRP) (Streptococcus pneumoniae, UniProt A0A0H2US34), measured Molar Relative Potency / LFuc as 1.0 is 4.4 relative to LFuc = 1.0
